Would you kindly list tissue uptake at 120 h for each of these compounds?
Assay: Biodistribution of 177Lu-labeled αMSH analogues in mice bearing B16F10 mouse melanoma
Assay type: in vivo, C57BL/6J mice
Details: male, mouse, testes, iv, total radioactivity; 120 h p.i., C57BL/6J mice, B16F10 melanoma; read-out: Biodistribution, Testes
Method: The B16-F10 mouse melanoma cells were cultured and inoculated in mice as described in Example 1. For biodistribution studies, approximately 1-2 MBq of ^177Lu-labeled αMSH analogues via tail vein under anesthesia. At 1, 4, 24, and 120 h p.i., the mice were euthanized by CO2 inhalation. Organs/tissues were harvested and the radioactivity was measured as described in Example 1.
Answers are plain numbers, in %ID/g.

Some compounds with recorded tissue uptake at 120 h:
>  <COMPOUND>
CCCC[C@H](NC(=O)CN1CCC(NC(=O)CN2CCN(CC(=O)O)CCN(CC(=O)O)CCN(CC(=O)O)CC2)CC1)C(=O)N[C@H]1CC(=O)NCCCC[C@@H](C(N)=O)N(C)C(=O)[C@H](Cc2c[nH]c3ccccc23)N(C)C(=O)[C@H](CCCNC(=N)N)N(C)C(=O)[C@@H](Cc2ccccc2)NC(=O)[C@H](Cc2c[nH]cn2)N(C)C1=O [^177Lu-labeled CCZ01099, metal not drawn]

>  <tissue uptake at 120 h (%ID/g)>
0.02

$$$$
>  <COMPOUND>
CCCC[C@H](NC(=O)CN1CCC(NC(=O)CN2CCN(CC(=O)O)CCN(CC(=O)O)CCN(CC(=O)O)CC2)CC1)C(=O)N[C@H]1CC(=O)NCCCC[C@@H](C(N)=O)N(C)C(=O)[C@H](Cc2c[nH]c3ccccc23)NC(=O)[C@H](CCCNC(=N)N)N(C)C(=O)[C@@H](Cc2ccccc2)NC(=O)[C@H](Cc2c[nH]cn2)NC1=O [^177Lu-labeled CCZ01106, metal not drawn]

>  <tissue uptake at 120 h (%ID/g)>
0.02

$$$$
>  <COMPOUND>
CCCC[C@H](NC(=O)CN1CCC(NC(=O)[C@H](CCCCNC(=O)CN2CCN(CC(=O)O)CCN(CC(=O)O)CCN(CC(=O)O)CC2)NC(=O)[C@H](CCC(=O)O)NC(=O)CCCc2ccc(I)cc2)CC1)C(=O)N[C@H]1CC(=O)NCCCC[C@@H](C(N)=O)N(C)C(=O)[C@H](Cc2c[nH]c3ccccc23)NC(=O)[C@H](CCCNC(=N)N)N(C)C(=O)[C@@H](Cc2ccccc2)NC(=O)[C@H](Cc2c[nH]cn2)NC1=O [^177Lu-labeled CCZ01118, metal not drawn]

>  <tissue uptake at 120 h (%ID/g)>
0.1

$$$$

For each entry beneath this line, provide reported tissue uptake at 120 h.
1. CCCC[C@H](NC(=O)CN1CCC(NC(=O)[C@H](CCCCNC(=O)CN2CCN(CC(=O)O)CCN(CC(=O)O)CCN(CC(=O)O)CC2)NC(=O)[C@H](CCC(=O)O)NC(=O)CCCc2ccc(I)cc2)CC1)C(=O)N[C@H]1CC(=O)NCCCC[C@@H](C(N)=O)N(C)C(=O)[C@H](Cc2c[nH]c3ccccc23)N(C)C(=O)[C@H](CCCNC(=N)N)N(C)C(=O)[C@@H](Cc2ccccc2)NC(=O)[C@H](Cc2c[nH]cn2)N(C)C1=O [^177Lu-labeled CCZ01088, metal not drawn]
2. CCCC[C@H](NC(=O)CN1CCC(NC(=O)[C@H](CCCCNC(=O)CN2CCN(CC(=O)O)CCN(CC(=O)O)CCN(CC(=O)O)CC2)NC(=O)[C@H](CCC(=O)O)NC(=O)CCCc2ccc(I)cc2)CC1)C(=O)N[C@H]1CC(=O)NCCCC[C@@H](C(N)=O)NC(=O)[C@H](Cc2c[nH]c3ccccc23)NC(=O)[C@H](CCCNC(=N)N)NC(=O)[C@@H](Cc2ccccc2)NC(=O)[C@H](Cc2c[nH]cn2)NC1=O [^177Lu-labeled CCZ01082, metal not drawn]

Reply:
1. 0.11
2. 0.2
